All figures here come from PubChem BioAssay AID1259321.

Molecular target: Nuclear receptor subfamily 1 group D member 1 (Homo sapiens)
Assay: modulators of Rev-erb alpha DNA binding, dose response, biochemical, FITC-DNA, fluorescence polarization (AID 1259321)
Calls of active or inactive are those of the source.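 How the source made its calls: active means half-maximal concentration for changing protein binding to DNA, from the fitted dose curve, below 10 micromolar; inactive means the rest.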
Your response should consist of one outcome taken from true (1) for active, false (0) for inactive

> print(dat)
                                   compound  label.class
1  COCCn1c(=NC(=O)c2ccco2)sc2cc(C(=O)OC)ccc21     true (1)
2  CCC(c1ccc(O)cc1)C(CC)c1ccc(O)cc1 (centres undefined)    false (0)
3  O=C(NCc1ccc2c(c1)OCO2)C1CCC(CNS(=O)(=O)c2cccc3nsnc23)CC1 (centres undefined)    false (0)

// query How did this test come out for Cc1ccc(-n2c(O)c(/C=N/c3ncc(Br)cc3Br)c(=O)[nH]c2=O)cc1 ?
// result false (0)

----------
Target: UniProt P20393
Assay: modulators of Rev-erb alpha DNA binding, dose response, biochemical, FITC-DNA, fluorescence polarization (AID 1259321)
Calls of active or inactive are those of the source.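 The calls were made as follows: active = half-maximal concentration for changing protein binding to DNA, from the fitted dose curve, below 10 micromolar; inactive = the rest.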
Your response should consist of one outcome taken from active, inactive

These solved cases illustrate the format of a correct answer.
> print(dat)
                                   molecule  label.class
1  CC(=O)c1ccccc1NC(=O)c1cc(S(=O)(=O)N2CCOCC2)ccc1N1CCCC1       active
2  Cc1cc(C)c2cc(C#N)c(SCC(=O)NCC3CCCO3)nc2c1 (stereo not given)       active
3  Cc1ccc(NC(=O)CSc2nc3ccccc3nc2N2CCOCC2)c(C)c1     inactive

// query How did this test come out for Clc1ccc(-c2ccnc(Oc3cc(Cl)ccc3Cl)n2)cc1 ?
// result inactive

// query How did this test come out for CCOC(=O)c1ccc2nc(Nc3nc4ccc(F)cc4s3)sc2c1 ?
// result active

// query How did this test come out for COc1ccc(-c2ccc3c(c2)c(Sc2ccccc2)c(-c2cc(OC)cc(OC)c2)n3C)cc1 ?
// result active

// query How did this test come out for CCC(=O)N=c1sc2c(OC)ccc(OC)c2n1C ?
// result active

----------
Target: Nuclear receptor subfamily 1 group D member 1 (Homo sapiens) (UniProt P20393)
Sequence (P20393 whole entry, looked up): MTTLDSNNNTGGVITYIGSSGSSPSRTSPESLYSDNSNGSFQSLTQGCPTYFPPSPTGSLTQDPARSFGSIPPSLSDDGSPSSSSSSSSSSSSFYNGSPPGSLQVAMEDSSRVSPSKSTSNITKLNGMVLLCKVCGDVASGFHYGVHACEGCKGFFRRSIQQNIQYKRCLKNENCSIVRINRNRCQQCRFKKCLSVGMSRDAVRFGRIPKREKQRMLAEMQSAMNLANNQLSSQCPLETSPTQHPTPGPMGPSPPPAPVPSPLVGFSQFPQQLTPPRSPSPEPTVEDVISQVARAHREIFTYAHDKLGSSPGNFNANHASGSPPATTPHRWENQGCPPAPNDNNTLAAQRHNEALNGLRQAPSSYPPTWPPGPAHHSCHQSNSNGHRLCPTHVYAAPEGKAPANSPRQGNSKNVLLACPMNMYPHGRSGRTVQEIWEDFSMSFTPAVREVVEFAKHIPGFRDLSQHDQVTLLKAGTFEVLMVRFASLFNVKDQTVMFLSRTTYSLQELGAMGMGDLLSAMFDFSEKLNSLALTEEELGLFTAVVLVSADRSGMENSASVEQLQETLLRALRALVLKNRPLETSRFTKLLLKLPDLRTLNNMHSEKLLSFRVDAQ
Test: modulators of Rev-erb alpha DNA binding, dose response, biochemical, FITC-DNA, fluorescence polarization (AID 1259321)
The source made the active and inactive calls.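 Rule for the calls: active = half-maximal concentration for changing protein binding to DNA, from the fitted dose curve, below 10 micromolar; inactive = the rest.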
Your response should consist of one outcome taken from active, inactive

These solved cases illustrate the format of a correct answer.
> print(dat)
                           smiles.structure  label.class
1  CCC(=O)c1ccc(OCC(=O)Nc2ccccc2C(=O)NC2CC2)cc1       active
2  O=C(Nc1ccc2c(c1)C(=O)NC2=O)c1ccc2ncsc2c1       active

We next turn to a different compound, shown below.
// query How did this test come out for COc1ccc2c(C)cc(SCC(=O)Nc3cccnc3Cl)nc2c1 ?
// result inactive

----------
Biological target: Nuclear receptor subfamily 1 group D member 1 (Homo sapiens) (UniProt P20393)
Test: modulators of Rev-erb alpha DNA binding, dose response, biochemical, FITC-DNA, fluorescence polarization (AID 1259321)
The source made the active and inactive calls.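 Rule for the calls: active = half-maximal concentration for changing protein binding to DNA, from the fitted dose curve, below 10 micromolar; inactive = the rest.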
Your response should consist of one outcome taken from 1 (active), 0 (inactive)

These solved cases illustrate the format of a correct answer.
> print(dat)
                                   molecule  label.class
1    C[n+]1ccc(/C=C/c2c[nH]c3ccc(F)cc23)cc1            0
2  Cc1[nH]nc2nc(SCC(=O)NCCC3=CCCCC3)n(-c3ccc(Br)cc3)c(=N)c12            0
3  CCC[C@H]1[C@@H](N(C)Cc2cccs2)CC[C@@]23CCCN2C(=O)CCC[C@@H]13            0

// query How did this test come out for COC(=O)Cn1c(=NC(=O)c2ccc(OC)c(OC)c2)sc2cc(OC)ccc21 ?
// result 0

// query How did this test come out for COc1ccc(-c2nc3c(c(=O)c4ccccc4n3C)c(=O)n2Cc2ccccc2)cc1 ?
// result 1

// query How did this test come out for COc1ccc(C(C)(C)C)cc1NC(=O)C1=CC=CN2CCS(=O)(=O)N=C12 ?
// result 1

----------
Would you kindly list pIC50 for each of these compounds?
Biological target: Nuclear receptor subfamily 1 group D member 1 (Homo sapiens)
One number for each entry, as −log10 of the molar value.

Worked examples, 2 compounds total:
> print(dat)
                           smiles.structure  reported.endpoint  reported.measurement
1  COc1ccc(-c2c(C#N)c(N)nc(Sc3ccc(Cl)cc3)c2C#N)cc1              pIC50                  5.44
2  Cc1ccc(-n2c(SCC(=O)Nc3cccc(C)c3)nc3c(oc4ccccc43)c2=O)cc1              pIC50                  5.66

// next item, pIC50 requested
So, Cc1nc2ccc3nc(NC(=O)c4ccc5c(c4)OCCO5)sc3c2s1 ? Its pIC50 was 5.02

----------
Molecular target: Nuclear receptor subfamily 1 group D member 1 (Homo sapiens) (UniProt P20393)
Assay: modulators of Rev-erb alpha DNA binding, dose response, biochemical, FITC-DNA, fluorescence polarization (AID 1259321)
The source made the active and inactive calls.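 Rule for the calls: active = half-maximal concentration for changing protein binding to DNA, from the fitted dose curve, below 10 micromolar; inactive = the rest.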
Your response should consist of one outcome taken from active, inactive

These solved cases illustrate the format of a correct answer.
> print(dat)
                                   compound  label.class
1  COC(=O)c1cc(-c2cc3ccccc3s2)c(=O)n2c1CCC2       active
2  COCCCn1c(C(=O)NCCC2=CCCCC2)cc2c(=O)n3cccc(C)c3nc21       active
3       C[n+]1ccc(/C=C/c2c[nH]c3ccccc23)cc1     inactive
4  Cc1cc(=O)oc2cc(OCC3CC(c4ccc(Br)cc4)=NO3)ccc12 (stereo not drawn)       active
5          Clc1nc2c(-c3ccccc3)nnn2c2ccccc12     inactive
6        CCOC(=O)c1ccccc1NC(=O)c1cncc(Br)c1       active

// query How did this test come out for COc1ccc(C(=O)COC(=O)c2cc(=O)[nH]c3ccccc23)c(OC)c1 ?
// result inactive

// query How did this test come out for Nc1c2c(nc3ccccc13)CCN(Cc1ccccc1)C2 ?
// result inactive

----------
Biological target: Nuclear receptor subfamily 1 group D member 1 (Homo sapiens) (UniProt P20393)
Test: modulators of Rev-erb alpha DNA binding, dose response, biochemical, FITC-DNA, fluorescence polarization (AID 1259321)
Activity calls are given as the source filed them.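 The calls were made as follows: active = half-maximal concentration for changing protein binding to DNA, from the fitted dose curve, below 10 micromolar; inactive = the rest.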
Your response should consist of one outcome taken from yes for active, no for inactive

> print(dat)
                                   compound                            assayed.target  label.class
1  CN1/C(=C\C=C2/C(=O)Oc3ccccc3C2=O)C(C)(C)c2ccccc21  Nuclear receptor subfamily 1 group D member 1 (Homo sapiens) (UniProt P20393)          yes
2  Cc1cc(NC(=O)c2cccs2)cc(-c2nc3ncccc3o2)c1O  Nuclear receptor subfamily 1 group D member 1 (Homo sapiens) (UniProt P20393)           no
3  CCOC(=O)c1nn(-c2ccc(F)cc2)c(=O)cc1OCC(=O)Nc1ccc(F)c(F)c1  Nuclear receptor subfamily 1 group D member 1 (Homo sapiens) (UniProt P20393)           no

// query How did this test come out for CC1=NCCN1S(=O)(=O)c1c(C(C)C)cc(C(C)C)cc1C(C)C ?
// result no

// query How did this test come out for Oc1ccccc1N=Nc1nc(-c2ccccc2)c(-c2ccccc2)[nH]1 ?
// result yes

// query How did this test come out for O=C(COc1nc2ccccc2nc1N1CCOCC1)N1CCc2ccccc21 ?
// result no

----------
Target: Nuclear receptor subfamily 1 group D member 1 (Homo sapiens) (UniProt P20393)
Assay: modulators of Rev-erb alpha DNA binding, dose response, biochemical, FITC-DNA, fluorescence polarization (AID 1259321)
Calls of active or inactive are those of the source.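 The calls were made as follows: active = half-maximal concentration for changing protein binding to DNA, from the fitted dose curve, below 10 micromolar; inactive = the rest.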
Your response should consist of one outcome taken from active, inactive

These solved cases illustrate the format of a correct answer.
> print(dat)
                                   compound  label.class
1            CCN(CC)c1ccc2cc(C=O)c(=O)oc2c1     inactive
2  CC1(Cc2ccccc2OC(F)(F)F)C(=O)Nc2ccc(-c3ccsc3)cc21 (stereo not given)       active
3  COc1ccc(-c2nc(-c3cccs3)c(-c3cccs3)[nH]2)cc1OC       active
4  Fc1c(F)c(C(F)(F)F)c(F)c(F)c1N1CCN(c2ccc3nnc(C(F)(F)F)n3n2)CC1       active
5  Cc1nc(-c2ccccc2)nc2[nH]c(-c3ccccc3)cc(=O)c12     inactive
6  COc1ccccc1N/C(N)=N/c1nc(CSc2ccc(C)cc2)cc(=O)[nH]1       active
7  N#Cc1c(N)nc(Sc2ccc(Cl)cc2)c(C#N)c1-c1ccccc1Cl       active
8         CCc1cc2cc(C(=O)Nc3ccc(F)cc3)sc2s1       active

// query How did this test come out for CCc1ccc(-c2nc(NC(=O)c3ccc(OCC(=O)Nc4ccc(F)cc4)c(OC)c3)sc2C)cc1 ?
// result active

// query How did this test come out for Cc1ccc2c3c(c(SCC(=O)Nc4nonc4C)nc2c1)CCCC3 ?
// result inactive

// query How did this test come out for O=c1oc2c3c4c(cc2c(C(F)(F)F)c1CCN1CCOCC1)CCCN4CCC3 ?
// result inactive

// query How did this test come out for CCN1/C(=C/c2ccc3cccc(C)c3[n+]2CC)Sc2ccccc21 ?
// result active

// query How did this test come out for CN(C)/C=C1\C=C2C(=O)c3ccccc3N2C1=O ?
// result active

// query How did this test come out for CCN1/C(=C/c2ccc3cc(C)ccc3[n+]2CC)Sc2ccccc21 ?
// result inactive

// query How did this test come out for c1cnc(SCC2CCCCC2)c(-c2nc3ccccc3[nH]2)c1 ?
// result active
